systemUnderTest: BaF3_HER2YVMA cells (Homo sapiens, UniProt P04626, DUP772-775, cells depend on it)
Sequence (P04626 with tags, fused parts or gaps DUP772-775): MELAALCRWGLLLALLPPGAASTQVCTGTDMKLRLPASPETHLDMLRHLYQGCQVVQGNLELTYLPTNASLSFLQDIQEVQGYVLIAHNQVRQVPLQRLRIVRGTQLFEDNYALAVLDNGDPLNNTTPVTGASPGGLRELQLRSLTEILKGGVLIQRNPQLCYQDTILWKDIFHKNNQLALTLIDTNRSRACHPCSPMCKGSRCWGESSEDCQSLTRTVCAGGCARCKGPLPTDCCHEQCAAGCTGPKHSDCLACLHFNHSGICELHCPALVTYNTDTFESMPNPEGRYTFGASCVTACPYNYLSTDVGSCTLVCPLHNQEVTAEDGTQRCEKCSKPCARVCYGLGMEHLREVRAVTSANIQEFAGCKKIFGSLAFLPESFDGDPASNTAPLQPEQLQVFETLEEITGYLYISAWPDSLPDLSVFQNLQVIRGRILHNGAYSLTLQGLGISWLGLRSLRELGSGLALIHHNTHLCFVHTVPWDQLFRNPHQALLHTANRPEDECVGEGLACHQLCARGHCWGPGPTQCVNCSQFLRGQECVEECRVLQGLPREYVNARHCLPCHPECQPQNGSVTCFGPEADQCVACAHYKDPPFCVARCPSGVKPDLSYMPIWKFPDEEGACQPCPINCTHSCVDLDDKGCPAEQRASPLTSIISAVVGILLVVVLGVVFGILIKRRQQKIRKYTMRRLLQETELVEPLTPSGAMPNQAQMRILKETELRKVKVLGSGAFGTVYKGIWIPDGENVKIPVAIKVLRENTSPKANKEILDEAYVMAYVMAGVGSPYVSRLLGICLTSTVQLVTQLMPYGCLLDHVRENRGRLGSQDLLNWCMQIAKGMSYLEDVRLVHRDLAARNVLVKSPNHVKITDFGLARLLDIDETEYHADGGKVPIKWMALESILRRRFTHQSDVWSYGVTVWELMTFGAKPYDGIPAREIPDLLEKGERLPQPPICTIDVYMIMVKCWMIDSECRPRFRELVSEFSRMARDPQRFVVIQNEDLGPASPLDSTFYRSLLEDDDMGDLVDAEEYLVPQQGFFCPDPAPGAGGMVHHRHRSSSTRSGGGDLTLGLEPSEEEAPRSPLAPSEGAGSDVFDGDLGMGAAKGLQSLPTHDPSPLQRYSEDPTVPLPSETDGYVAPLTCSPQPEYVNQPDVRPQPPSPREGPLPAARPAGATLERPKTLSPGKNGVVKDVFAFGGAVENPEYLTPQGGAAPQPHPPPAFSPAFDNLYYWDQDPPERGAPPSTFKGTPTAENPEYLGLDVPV
test: Cell growth inhibition assay (CellTiterGlo), BaF3_HER2YVMA
Assay type: cell-based
conditionInfo: cell growth inhibition, 3 days treatment, read-out: HER2 - YVMA IC50
experimentalEndpoint: GI50

Reference set (4 entries):
C=C(CN(C)C)C(=O)N1CC2CCC1CC2c1ccn2ncnc(Nc3ccc(Oc4ccn5ncnc5c4)c(C)c3)c12 (single isomer, unassigned) [Examples 135 and 136, first eluting isomer] | < 200 nM
Cc1cc(Nc2ncnn3ccc(C4CC5CCC(C4)N5C(=O)/C=C/CN(C)C)c23)ccc1Oc1ccn2ncnc2c1 (single isomer, unassigned) [Examples 122 and 123, first eluting isomer] | < 200 nM
Cc1cc(Nc2ncnn3ccc(C4CN(C(=O)/C=C/C5CCCN5C)C4)c23)ccc1Oc1ccn2ncnc2c1 (single isomer, unassigned) [Examples 171 and 172, second eluting isomer] | < 200 nM
C=C(CN(C)C)C(=O)N1C2CCC1CC(c1ccn3ncnc(Nc4ccc(Oc5ccn6ncnc6c5)c(C)c4)c13)C2 (single isomer, unassigned) [Examples 126 and 127, second eluting isomer] | 500 to 1500 nM

Now consider the entry below.
GET /values?readout=GI50&item= C=C(CN(C)C)C(=O)N1CCCC(c2ccn3ncnc(Nc4ccc(Oc5ccn6ncnc6c5)c(C)c4)c23)CC1 (single isomer, unassigned) [Examples 143 and 144, second eluting isomer]
< 200 nM
